# TESTED TARGET: human A2a adenosine receptor (Homo sapiens (Human))
# Sequence (P29274 whole entry): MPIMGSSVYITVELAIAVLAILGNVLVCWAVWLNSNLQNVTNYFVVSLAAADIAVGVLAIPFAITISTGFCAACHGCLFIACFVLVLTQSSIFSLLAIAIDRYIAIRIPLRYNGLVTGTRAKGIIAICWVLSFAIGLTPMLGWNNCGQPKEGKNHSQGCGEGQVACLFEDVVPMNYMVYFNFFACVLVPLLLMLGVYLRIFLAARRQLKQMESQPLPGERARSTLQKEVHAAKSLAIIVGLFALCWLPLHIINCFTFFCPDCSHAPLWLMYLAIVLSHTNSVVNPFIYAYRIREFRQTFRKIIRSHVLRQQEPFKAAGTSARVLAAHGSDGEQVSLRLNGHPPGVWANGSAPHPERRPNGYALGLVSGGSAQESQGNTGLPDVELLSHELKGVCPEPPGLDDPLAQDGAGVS
# RUN DESCRIPTION: A2a receptor affinity radioligand binding assay ([3H] SCH58261, membranes from HEK293 or CHO cells)
# ASSAY SETUP: unstarred values: radioligand binding

COMPOUND	READING UNIT	IC50
COc1cccc2c1nc(N)n1nc([C@@H]3CCCN(c4ncc[nH]4)C3)nc21	nM	2.3
COc1ccc2c(c1)nc(N)n1nc([C@H]3CC[C@@H](C)N(c4cnn([C@H](C)C(C)(C)O)c4)C3)nc21 [Example 212B]	nM	234
CCC(O)(CC)Cn1cc(N2CCC[C@@H](c3nc4c5cccc(OC)c5nc(N)n4n3)C2)cn1	nM	3.1
COc1cccc2c1nc(N)n1nc(C3CCC(C)N(c4cnn(C5CC5)c4)C3)nc21 (single isomer, unassigned) [Example 141A]	nM	2.2
COc1cccc2c1nc(N)n1nc([C@@H]3CCCN(c4cn[nH]c4)C3)nc21	nM	1.5
COc1ccc2c(c1)nc(N)n1nc([C@@H]3CC[C@H](C)N(c4cnn(C5CCC[C@H]5O)c4)C3)nc21 (some centres unmarked) [Example 210A]	nM	0.2
CC[C@H]1CC[C@@H](c2nc3c4ccc(OC)cc4nc(N)n3n2)CN1c1cnn(C(C)(C)CO)c1 [Example 215D]	nM	20.7
COc1cccc2c1nc(N)n1nc([C@@H]3CCCN(c4cnn(CC(C)(C)O)c4C)C3)nc21	nM	0.1
Cn1cc(N2CCCC(c3nc4c5c(F)ccc(F)c5nc(N)n4n3)C2)cn1 (single isomer, unassigned)	nM	34.2
COc1cccc2c1nc(N)n1nc(C3CCC(C)N(c4cnn(CC(C)(C)O)c4)C3)nc21 (single isomer, unassigned) [Example 143C]	nM	31.6
COc1cccc2c1nc(N)n1nc([C@@H]3CCCN(c4cnn(C)n4)C3)nc21	nM	1
COc1cccc2c1nc(N)n1nc([C@@H]3CCCN(c4nccc(C(F)(F)F)n4)C3)nc21	nM	16.4
COc1cccc2c1nc(N)n1nc([C@@H]3CCCN(c4cc(=O)n(C)c5ccccc45)C3)nc21	nM	1.9
COc1cccc2c1nc(N)n1nc(C3CCC(C)N(c4cnn(CC(C)(C)O)c4)C3)nc21 (single isomer, unassigned) [Example 143B]	nM	0.9
COc1cccc2c1nc(N)n1nc([C@@H]3CCCN(c4cnn(CC(C)(C)OC)c4)C3)nc21	nM	1.6
CC[C@@H]1CC[C@@H](c2nc3c4ccc(OC)cc4nc(N)n3n2)CN1c1cnn(C(C)(C)CO)c1 [Example 215B]	nM	0.5
COc1cccc2c1nc(N)n1nc([C@@H]3CCCN(c4cnn(CC5CC5)c4)C3)nc21	nM	0.8
COc1cccc2c1nc(N)n1nc([C@@H]3CCCN(c4cn(C)cn4)C3)nc21	nM	3.6
COc1cccc2c1nc(N)n1nc([C@@H]3CCCN(c4nccnc4C)C3)nc21	nM	0.5
CCn1cc(N2C[C@H](c3nc4c5cccc(OC)c5nc(N)n4n3)CC[C@@H]2C)cn1 [Example 140D]	nM	5
